Let's look at some molecules and their measured EC50.
- TESTED_TARGET: hCaSR (Calcium sensing receptor) in stably transfected HEK293 cells (Homo sapiens, UniProt P41180)
- Sequence (P41180 20-1078): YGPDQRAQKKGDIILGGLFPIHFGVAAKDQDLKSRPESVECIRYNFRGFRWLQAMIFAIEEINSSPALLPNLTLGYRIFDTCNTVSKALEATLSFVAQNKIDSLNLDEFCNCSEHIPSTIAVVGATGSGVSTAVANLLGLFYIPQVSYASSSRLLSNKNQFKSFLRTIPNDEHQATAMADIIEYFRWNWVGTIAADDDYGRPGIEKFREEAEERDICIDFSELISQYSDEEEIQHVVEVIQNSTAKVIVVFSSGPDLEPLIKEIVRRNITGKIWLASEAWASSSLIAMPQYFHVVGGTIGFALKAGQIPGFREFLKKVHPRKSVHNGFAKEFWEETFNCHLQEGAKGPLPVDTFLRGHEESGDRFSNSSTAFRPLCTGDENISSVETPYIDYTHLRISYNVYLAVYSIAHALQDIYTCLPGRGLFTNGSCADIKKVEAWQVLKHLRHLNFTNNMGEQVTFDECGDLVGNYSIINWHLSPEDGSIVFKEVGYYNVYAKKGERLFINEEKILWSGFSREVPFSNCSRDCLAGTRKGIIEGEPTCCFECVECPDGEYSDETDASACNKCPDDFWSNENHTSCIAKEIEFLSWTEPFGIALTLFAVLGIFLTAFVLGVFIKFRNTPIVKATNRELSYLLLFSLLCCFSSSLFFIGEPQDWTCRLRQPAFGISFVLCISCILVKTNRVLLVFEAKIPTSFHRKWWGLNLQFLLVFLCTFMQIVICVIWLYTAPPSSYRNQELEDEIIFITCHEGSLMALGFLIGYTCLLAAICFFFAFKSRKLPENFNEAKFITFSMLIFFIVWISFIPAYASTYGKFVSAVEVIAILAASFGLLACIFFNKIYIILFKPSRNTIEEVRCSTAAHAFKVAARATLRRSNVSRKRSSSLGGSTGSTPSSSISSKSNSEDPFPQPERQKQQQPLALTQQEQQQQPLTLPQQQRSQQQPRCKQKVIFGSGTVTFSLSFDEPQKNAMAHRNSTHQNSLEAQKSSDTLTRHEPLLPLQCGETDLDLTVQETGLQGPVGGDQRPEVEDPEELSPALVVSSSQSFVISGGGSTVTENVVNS
- MEASUREMENT_PROTOCOL: In-vitro assay of calcimimetics through modulation of calcium sensing receptor (CaSR): increase in intracellular calcium, FLIPR
- MEASUREMENT_PARAMETERS: HEK293 cells expressing hCaSR; intracellular calcium (Fluo4NW, FLIPR); 0.3 mM CaCl2; 8-point assay; read-out: EC50 in range
- Protocol: In-Vitro Assay Method of Calcimemtics Through Modulation of Calcium Sensing Receptor (CaSR): The ability of the compounds to modulate Calcium sensing receptor is determined by measuring an increase in intracellular calcium [Ca^2+i]. Stably transfected HEK293 cells expressing hCaSR_pTriEx-3 hygro vector are developed. […] The activities of the compounds are measured in FLIPR using 0.3 mM CaCl2 in 20 mM HEPES base buffer. […]
Counter-ions that a name gives are not always drawn.
ASSAY_READOUT: EC50

MOLECULE | MEASURED_VALUE
C[C@@H](NCC1CN(c2ccc(F)cc2)CCO1)c1cccc2ccccc12 (some centres unmarked) | < 20 nM
CC(C)N1CC(CN[C@H](C)c2cccc3ccccc23)OCC1=O (single isomer, unassigned) [Example 93b, hydrochloride] | 50 to 200 nM
COc1cccc([C@@H](C)NCC2COCCN2c2cccc(C)c2)c1 (single isomer, unassigned) [10a] | 50 to 200 nM
C[C@@H](NCC1CN(c2ccc(C(F)(F)F)cc2)CCO1)c1cccc2ccccc12 (single isomer, unassigned) [33b] | 20 to 50 nM
Cc1cccc(N2CCOCC2CN[C@H](C)c2cccc3ccccc23)c1 (some centres unmarked) [Example 120, hydrochloride] | < 20 nM
C[C@@H](NCCC1CN(c2ccc(C(=O)O)cc2)CCO1)c1cccc2ccccc12 (single isomer, unassigned) [Example 112a, hydrochloride] | 50 to 200 nM
C[C@@H](NCC1CN(c2ccc(F)c(F)c2)C(=O)CO1)c1cccc2ccccc12 (single isomer, unassigned) [62b, hydrochloride] | 20 to 50 nM
C[C@@H](NCC1CN(Cc2ccc(F)cc2C(F)(F)F)C(=O)CO1)c1cccc2ccccc12 (some centres unmarked) [Example 82, hydrochloride] | < 20 nM
COc1cccc([C@@H](C)NCC2CN(c3ccc(F)c(F)c3)CCO2)c1 (some centres unmarked) [Example 135, hydrochloride] | < 20 nM
C[C@@H](NCC1COCCN1Cc1ccccc1)c1cccc2ccccc12 (single isomer, unassigned) [Example-36a] | 50 to 200 nM
C[C@@H](NCC1CN(CC2CC2)C(=O)CO1)c1cccc2ccccc12 (single isomer, unassigned) [Example 97a, hydrochloride] | < 20 nM
Cc1cc(N2CCOC(CN[C@H](C)c3cccc4ccccc34)C2)ccc1C(=O)O (single isomer, unassigned) [Example 136b, hydrochloride] | 50 to 200 nM
Cc1cc(N2CCOC(CCN[C@H](C)c3cccc4ccccc34)C2)ccc1C(=O)O (single isomer, unassigned) [Example 104a] | 50 to 200 nM
C[C@@H](NCC1CN(c2ccc(CC(=O)O)cc2)C(=O)CO1)c1cccc2ccccc12 (some centres unmarked) [compound 60, hydrochloride] | 50 to 200 nM

// provenance: patent US9382216B2
